List of EC50 (nM) SNU-5 values.
Target: Carboanhydrase IX (Homo sapiens, UniProt Q16790 38-459)
Assay: cell-based or functional assay
Form entry: value (nM) — number only.

>>> result_number("Example 290 (antibody, human IgG1, kappa, V domains shown, linker-toxophore on lysine NH) VH: QVELVESGGGLVQPGGSLRLSCAASGFTFSSYGMSWVRQAPGKGLEWVSGISSLGSTTYYADSVKGRFTISRDNSKNTLYLQMNSLRAEDTAVYYCARTGSPGTFMHGDHWGQGTLVTVSS VL: DIQMTQSPSSLSASVGDRVTITCRASQDINNYLSWYQQKPGKAPKLLIYGASNLQSGVPSRFSGSGSGTDFTLTISSLQPEDFAVYYCQQYYGRPTTFGQGTKVEIKR")
84
>>> result_number("Example 295 (antibody, human IgG1, kappa, V domains shown, linker-toxophore on cysteine S) VH: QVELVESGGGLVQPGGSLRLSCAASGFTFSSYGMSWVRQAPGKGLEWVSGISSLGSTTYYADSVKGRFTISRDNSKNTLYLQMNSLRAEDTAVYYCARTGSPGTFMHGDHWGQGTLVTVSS VL: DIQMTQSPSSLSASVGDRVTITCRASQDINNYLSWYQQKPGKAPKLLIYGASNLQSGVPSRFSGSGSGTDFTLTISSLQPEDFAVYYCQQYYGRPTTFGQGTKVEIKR")
63

Please turn your attention to the following entry.
Q. I am curious: what EC50 (nM) SNU-5 value has been reported for Example 306 (antibody, human IgG1, kappa, V domains shown, linker-toxophore on lysine NH) VH: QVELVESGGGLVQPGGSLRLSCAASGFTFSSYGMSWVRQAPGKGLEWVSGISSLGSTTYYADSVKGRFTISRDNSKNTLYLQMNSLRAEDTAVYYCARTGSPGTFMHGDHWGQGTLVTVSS VL: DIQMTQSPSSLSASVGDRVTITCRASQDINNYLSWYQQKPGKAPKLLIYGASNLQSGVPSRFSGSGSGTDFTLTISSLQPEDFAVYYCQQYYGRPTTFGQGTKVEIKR ?
A. 33
